- Species: Rattus norvegicus
- Test method notes: Open TG-GATES - Regimen: Daily Repeat
- Type: toxicity, organism-based, Sprague-Dawley
- Parameters: regimen Daily Repeat, gender Male, age 6 weeks
- Stated conditions: in vivo, po, 0 mg/kg, 72 h, route gavage, dose level Control, time 3 day
Assignment: determine reported TERMINAL_BW for the given molecules.
Answers are plain numbers, in g.

These solved cases illustrate the format of a correct answer.
{"columns": ["Molecule", "Meas value"],
 "data": [
  ["CN(C)CCC=C1c2ccccc2CCc2ccccc21 [AMITRIPTYLINE]", 226.6],
  ["CO[C@H]1/C=C/O[C@@]2(C)Oc3c(C)c(O)c4c(O)c(c(/C=N/N5CCN(C)CC5)c(O)c4c3C2=O)NC(=O)/C(C)=C\\C=C\\[C@H](C)[C@H](O)[C@@H](C)[C@@H](O)[C@@H](C)[C@H](OC(C)=O)[C@@H]1C [RIFAMPIN]", 242.1],
  ["COc1ccc(Cc2nccc3cc(OC)c(OC)cc23)cc1OC [PAPAVERINE]", 240.5],
  ["CCCC(CCC)C(=O)O [VALPROIC ACID]", 222]
]}

Identify measured TERMINAL_BW corresponding to C[C@H](CS)C(=O)N1CCC[C@H]1C(=O)O [CAPTOPRIL]
245.5

* * *

- Species: Rattus norvegicus
- Test method notes: Open TG-GATES - Regimen: Daily Repeat
- Assay type: toxicity, organism-based, Sprague-Dawley
- Set-up: regimen Daily Repeat, gender Male, age 6 weeks
- Stated conditions: in vivo, po, 0 mg/kg, […], tissue Liver, route gavage, dose level Control, time 28 day
Give LIVER for every item shown.
Answers are plain numbers, in g.

Solved entries:
{"columns": ["Molecule", "Meas value"],
 "data": [
  ["NC(=O)N/N=C/c1ccc([N+](=O)[O-])o1 [NITROFURAZONE]", 16.8],
  ["Clc1ccccc1CN1CCc2sccc2C1 [TICLOPIDINE]", 16.3],
  ["COc1ccc2c(c1)c(CC(=O)O)c(C)n2C(=O)c1ccc(Cl)cc1 [INDOMETHACIN]", 19.6],
  ["O=C(O)c1cc(/N=N/c2ccc(S(=O)(=O)Nc3ccccn3)cc2)ccc1O [SULFASALAZINE]", 14.8],
  ["COc1ccc(Cc2nccc3cc(OC)c(OC)cc23)cc1OC [PAPAVERINE]", 16.8],
  ["NC(=O)N1c2ccccc2C=Cc2ccccc21 [CARBAMAZEPINE]", 15.2]
]}

State recorded LIVER for all listed molecules.
1. Cn1c(=O)c2[nH]cnc2n(C)c1=O.O [THEOPHYLLINE]
2. CSc1ccc2c(c1)N(CCC1CCCCN1C)c1ccccc1S2 (configuration not stated) [THIORIDAZINE]

1: 15.4; 2: 18.7

Go through the list and state LIVER for each entry.
1. CCc1cc(C(N)=S)ccn1 [ETHIONAMIDE]
2. CN(C)CCC=C1c2ccccc2CCc2ccccc21 [AMITRIPTYLINE]
3. CO[C@H]1/C=C/O[C@@]2(C)Oc3c(C)c(O)c4c(O)c(c(/C=N/N5CCN(C)CC5)c(O)c4c3C2=O)NC(=O)/C(C)=C\C=C\[C@H](C)[C@H](O)[C@@H](C)[C@@H](O)[C@@H](C)[C@H](OC(C)=O)[C@@H]1C [RIFAMPIN]
4. C[C@H](CS)C(=O)N1CCC[C@H]1C(=O)O [CAPTOPRIL]

[17.7, 17, 16, 17]
